- System: ACHN renal
- Protocol Details: NCI-60 one-dose screen, 48 h (100 = growth as untreated, 0 = no growth, -100 = all killed)
- Reported Conditions: 10 µM unless noted
This is part of a sample that, as a whole, favours compounds with a hit. Of some 83,000 tested, about 20% had one in any assay.
// returns Criterion not met unless growth is strictly below 30%, in which case Criterion met

// known answers, use as guide
## Input Strictly below 30% in growth? `CCCCOc1ccc(NC(=O)c2sc3nc(C)ccc3c2N)cc1`
## Output Criterion met

## Input Strictly below 30% in growth? CC1(C)CC[C@]2(C(=O)O)CC[C@]3(C)C(=CCC4[C@@]5(C)C[C@@H](O)[C@@H]6OC(c7ccco7)OC[C@@]6(C)C5CC[C@]43C)C2C1 (stereo not given in full)
## Output Criterion met

Continuing:
## Input Strictly below 30% in growth? `COc1ccc(-c2cc(C(=O)NCc3ccccc3)nn2-c2ccc(S(C)(=O)=O)cc2)cc1OC`
## Output Criterion not met

## Input Strictly below 30% in growth? COc1c(F)ccc(C(=O)Nc2ccc3nc(NC(=O)C4CCCN(S(=O)(=O)C5CC5)C4)sc3c2)c1F (stereo not given)
## Output Criterion not met

## Input Strictly below 30% in growth? `CN(C)CCCNC(=O)c1cc(NC(=O)c2cc(NC(=O)c3ccc(/C=C/c4ccccc4)cc3)cn2C)cn1C`
## Output Criterion not met

## Input Strictly below 30% in growth? `COc1ccc(-c2ccnc(SCc3cc4ccccc4[nH]c3=O)n2)cc1OC`
## Output Criterion met

## Input Strictly below 30% in growth? `COc1cc(-c2ccc(/C=N/NC(=O)c3[nH]c4ccc(Br)cc4c3-c3ccccc3)s2)cc(OC)c1OC`
## Output Criterion not met

## Input Strictly below 30% in growth? CC(C)C(C(=O)O)n1c(O)c(/C=C2/C=c3cc4c(cc3=NC2=O)OCO4)sc1=S (stereo not given)
## Output Criterion not met

## Input Strictly below 30% in growth? `COc1ccc(-c2nc3cc(C)ccc3n2CC(=O)N=Nc2c(O)[nH]c3ccc(Cl)cc23)cc1`
## Output Criterion met

---

Record form. Attribute: growth. Fill in for each entry.
- Test system: RXF 393 renal
- Protocol Details: NCI-60 one-dose screen, 48 h (100 = growth as untreated, 0 = no growth, -100 = all killed)
- Reported Conditions: 10 µM unless noted
About 83,000 compounds went through this panel and 20% of them were active in at least one assay; those are over-represented in the sample as a whole.
Give bare numbers, in %.

These solved cases illustrate the format of a correct answer.
## Input Determine from records and report growth for `COc1cccc(-c2c(C#N)c(-c3ccc(Cl)cc3)nc3n[nH]c(-c4ccc(Cl)cc4)c23)c1`
## Output 39.3

## Input Determine from records and report growth for C#CCOc1cc(N(CC)CC)ccc1C(C(=O)NC(C)(C)C)N(C(=O)C1CCc2cc(F)ccc2O1)c1ccccc1F (stereo not given)
## Output 40.4

## Input Determine from records and report growth for `CN(C)c1ccnc(CNCCSC2(c3ccccc3)c3ccccc3C=Cc3ccccc32)c1`
## Output -36.6

## Input Determine from records and report growth for `COc1ccc2oc3c4[nH]c5ccccc5c4c4c(c3c2c1)C(=O)N(C(=O)OC(C)(C)C)C4=O`
## Output -0.96

Now turn to the next molecule.
## Input Determine from records and report growth for `COc1cc2oc(-c3cccc(C(=O)Nc4ccc(Cl)cc4)c3)cc(=O)c2c(OCCNC(=O)[C@H](CCC(=O)OC(C)(C)C)NC(=O)OC(C)(C)C)c1OC`
## Output 84.3
